System: HepG2
Assay: cytotoxicity call (relative viability < 0.9)
Conditions: 10 µM
In all, about 39,000 compounds went through this assay and about 3,300 (8.5%) were called active. Only a selection was taken, and actives are over-represented in it overall.
Labels: yes (1) = active, no (0) = inactive

# record smiles, class label
measured = [
    ("CC(C)NC(=O)Nc1ccc2c(c1)C(=O)N([C@@H](C)CO)C[C@@H](C)[C@@H](CN(C)Cc1ccc(C(F)(F)F)cc1)OCCCC[C@H](C)O2", "no (0)"),
    ("Cc1noc(C)c1NC(=O)Nc1cccc2c1O[C@@H](CN(C)S(=O)(=O)c1cn(C)cn1)[C@@H](C)CN([C@H](C)CO)C2=O", "no (0)"),
    ("O=C(O)[C@H]1Cc2ccccc2CN1", "no (0)"),
    ("CC(C)N(C[C@H]1O[C@@H](n2cnc3c(N)ncnc32)[C@H](O)[C@@H]1O)[C@H]1C[C@@H](CCc2nc3ccc(C(C)(C)C)cc3[nH]2)C1", "yes (1)"),
    ("CC(=O)c1ccc(S(=O)(=O)N2[C@@H]3CC[C@@H](C3)[C@H]2c2nc3cccc(OCc4ccc(F)cc4)c3[nH]2)cc1", "no (0)"),
    ("COc1ccc(CN(C)C[C@H]2OCCCC[C@@H](C)Oc3ccc(NC(=O)Nc4ccccc4)cc3C(=O)N([C@H](C)CO)C[C@H]2C)cc1", "yes (1)"),
    ("O=C(C[C@@H]1C[C@@H]2c3cc(NC(=O)c4ccc5c(c4)OCO5)ccc3O[C@@H]2[C@@H](CO)O1)NCc1ccc(Oc2ccccc2)cc1", "no (0)"),
    ("COc1ccc(CN(C)C[C@@H]2OCCCC[C@H](C)Oc3ccc(NC(=O)Nc4ccccc4)cc3C(=O)N([C@H](C)CO)C[C@H]2C)cc1", "no (0)"),
    ("CC(C)(c1cc(Br)c(O)c(Br)c1)c1cc(Br)c(O)c(Br)c1", "no (0)"),
    ("O=c1[nH][nH]c(=O)c(Cl)c1Cl", "no (0)"),
    ("C[C@H](CO)N1C[C@H](C)[C@H](CN(C)Cc2ccc(C(F)(F)F)cc2)OCCCC[C@H](C)Oc2ccc(NC(=O)Nc3ccccc3)cc2C1=O", "yes (1)"),
    ("Nc1ncnc2c1ncn2[C@@H]1O[C@H](C[C@@H](N)CC[C@H](N)C(=O)O)[C@@H](O)[C@H]1O", "no (0)"),
    ("CC(C)NC(=O)Nc1ccc2c(c1)C(=O)N([C@@H](C)CO)C[C@H](C)[C@H](CN(C)Cc1ccc(C(F)(F)F)cc1)OCCCC[C@@H](C)O2", "yes (1)"),
    ("CC(C)NC(=O)N(C)C[C@H]1OCCCC[C@@H](C)Oc2ccc(NS(C)(=O)=O)cc2C(=O)N([C@@H](C)CO)C[C@H]1C", "no (0)"),
    ("CC(C)N(CCCNC(=O)Nc1ccc(C(C)(C)C)cc1)C[C@H]1O[C@@H](n2cnc3c(N)ncnc32)[C@@H](O)[C@H]1O", "no (0)"),
    ("C[C@H]1CN([C@@H](C)CO)C(=O)Cc2cc(NC(=O)Nc3ccc(C(F)(F)F)cc3)ccc2O[C@@H]1CN(C)C(=O)NC1CCCCC1", "no (0)"),
    ("C[C@H]1CCCCO[C@H](CN(C)Cc2ccc(C(F)(F)F)cc2)[C@@H](C)CN([C@@H](C)CO)C(=O)c2cc(NC(=O)Nc3ccccc3)ccc2O1", "yes (1)"),
    ("COc1ccc(CN(C)C[C@H]2OCCCC[C@@H](C)Oc3ccc(NC(=O)Nc4ccccc4)cc3C(=O)N([C@@H](C)CO)C[C@H]2C)cc1", "yes (1)"),
    ("CC(C)NC(=O)Nc1ccc2c(c1)C(=O)N([C@H](C)CO)C[C@@H](C)[C@H](CN(C)Cc1ccc(C(F)(F)F)cc1)OCCCC[C@H](C)O2", "yes (1)"),
    ("O=C(C[C@H]1C[C@@H]2c3cc(NC(=O)Nc4ccc(C(F)(F)F)cc4)ccc3O[C@@H]2[C@H](CO)O1)NCc1cc(F)ccc1F", "no (0)"),
    ("CC(C)NC(=O)Nc1ccc2c(c1)C(=O)N([C@H](C)CO)C[C@@H](C)[C@@H](CN(C)Cc1ccc(C(F)(F)F)cc1)OCCCC[C@H](C)O2", "no (0)"),
    ("COCC(=O)N(C)C[C@H]1Oc2cc(C#C[C@@H](C)O)ccc2S(=O)(=O)N([C@@H](C)CO)C[C@H]1C", "no (0)"),
    ("CC(C)NC(=O)Nc1ccc2c(c1)C(=O)N([C@@H](C)CO)C[C@H](C)[C@@H](CN(C)Cc1ccc(C(F)(F)F)cc1)OCCCC[C@@H](C)O2", "yes (1)"),
    ("C[C@@H]1CN([C@H](C)CO)C(=O)Cc2cc(NC(=O)Nc3ccc(F)cc3)ccc2O[C@H]1CN(C)C(=O)Nc1cccc2ccccc12", "no (0)"),
    ("C[C@@H]1CN([C@H](C)CO)C(=O)c2cc(-c3ccc(F)cc3)cnc2O[C@@H]1CN(C)C(=O)Cc1ccccn1", "no (0)"),
    ("Cc1noc(C)c1NC(=O)Nc1ccc2c(c1)C(=O)N([C@@H](C)CO)C[C@H](C)[C@H](CN(C)Cc1ccc(C(F)(F)F)cc1)OCCCC[C@@H](C)O2", "no (0)"),
    ("CC(C)NC(=O)Nc1ccc2c(c1)C(=O)N([C@H](C)CO)C[C@H](C)[C@@H](CN(C)Cc1ccc(C(F)(F)F)cc1)OCCCC[C@@H](C)O2", "no (0)"),
    ("CN1C(=O)c2cc(NC(=O)c3cccs3)ccc2OC[C@@H]2O[C@@H](CC(=O)NCC(F)(F)F)CC[C@@H]21", "no (0)"),
]

* * *

Tested on: HepG2
Assay: cytotoxicity call (relative viability < 0.9)
Settings: 10 µM
The campaign covered roughly 39,000 compounds. About 3,300 (8.5%) were called active. The entries come from a sample that favours actives as a whole.

# record smiles, cytotoxicity call
data = [
    ("Cc1ccc(S(=O)(=O)N(C)C[C@H]2OCCCC[C@H](C)Oc3ccc(NC(=O)Nc4cccc5ccccc45)cc3C(=O)N([C@H](C)CO)C[C@@H]2C)cc1", "inactive"),
    ("C[C@@H]1CN([C@H](C)CO)C(=O)CCCn2nncc2CO[C@H]1CN(C)C(=O)c1cc(-c2ccccc2)on1", "inactive"),
    ("C[C@H]1CN([C@@H](C)CO)C(=O)c2cccc(NC(=O)C3CC3)c2O[C@H]1CN(C)S(=O)(=O)c1ccccc1", "inactive"),
    ("C[C@H]1CCCCO[C@H](CN(C)CC2CCCCC2)[C@@H](C)CN([C@@H](C)CO)C(=O)c2cc(NC(=O)Nc3ccc(F)cc3)ccc2O1", "active"),
    ("COc1ccc(S(=O)(=O)N(C)C[C@H]2Oc3c(NC(=O)c4ccncc4)cccc3C(=O)N([C@H](C)CO)C[C@@H]2C)cc1", "inactive"),
    ("C[C@@H]1CN([C@@H](C)CO)C(=O)Cc2cc(NC(=O)Nc3ccc(C(F)(F)F)cc3)ccc2O[C@H]1CN(C)Cc1ccc(C(=O)O)cc1", "inactive"),
    ("Cn1nnnc1SCC(=O)NC(C)(C)C", "inactive"),
    ("C[C@H]1CN([C@@H](C)CO)S(=O)(=O)c2ccc(-c3cccc(C#N)c3)cc2O[C@H]1CN(C)C(=O)c1ccncc1", "inactive"),
    ("C[C@H](CO)N1C[C@H](C)[C@H](CN(C)S(=O)(=O)c2cn(C)cn2)Oc2ncc(C#Cc3ccccc3)cc2C1=O", "inactive"),
    ("C[C@@H]1CN([C@H](C)CO)C(=O)Cc2cc(NC(=O)Nc3ccc(C(F)(F)F)cc3)ccc2O[C@H]1CN(C)Cc1ccc(C(=O)O)cc1", "inactive"),
    ("COC(=O)c1c(C#N)c(N)nc2c1CCC2", "inactive"),
    ("Cl.Cl.OCCN1CCN(CCCN2c3ccccc3Sc3ccc(C(F)(F)F)cc32)CC1", "active"),
    ("OCCN1CCN(c2ncnc3c2ncn3[C@H]2CN(Cc3cccc(C(F)(F)F)c3)C[C@@H](CO)O2)CC1", "inactive"),
    ("CCC(=O)N1CCC[C@@H]1C(=O)O", "inactive"),
    ("C[C@@H]1CCCCO[C@H](CN(C)CC2CC2)[C@@H](C)CN([C@H](C)CO)C(=O)c2cc(NC(=O)Nc3ccc(F)cc3)ccc2O1", "inactive"),
    ("C[C@@H]1CCCCO[C@@H](CN(C)CC2CCCCC2)[C@@H](C)CN([C@H](C)CO)C(=O)c2cc(NC(=O)Nc3ccc(F)cc3)ccc2O1", "inactive"),
    ("O=C(/C=C/c1ccc(CNc2ccc([C@H]3O[C@@H](CSc4ccncc4)C[C@H](c4ccccc4)O3)cc2)cc1)NO", "active"),
    ("C[C@H]1CCCCO[C@@H](CN(C)CC2CCCCC2)[C@@H](C)CN([C@@H](C)CO)C(=O)c2cc(NC(=O)Nc3ccc(F)cc3)ccc2O1", "active"),
    ("CC(C)NC(=O)Nc1ccc2c(c1)C(=O)N([C@@H](C)CO)C[C@@H](C)[C@@H](CN(C)C(=O)Nc1ccc(F)cc1)OCCCC[C@@H](C)O2", "inactive"),
    ("OCCN1CCN(CCCN2c3ccccc3Sc3ccc(Cl)cc32)CC1", "active"),
    ("C[C@@H]1CCCCO[C@H](CN(C)CC2CCCCC2)[C@H](C)CN([C@H](C)CO)C(=O)c2cc(NC(=O)Nc3ccc(F)cc3)ccc2O1", "active"),
    ("COc1ccc(NC(=O)Nc2cccc3c2O[C@@H](CN(C)CC2CCCCC2)[C@H](C)CN([C@H](C)CO)C3=O)cc1", "inactive"),
    ("C[C@H](CO)N1C[C@H](C)[C@H](CN(C)C(=O)Nc2cccc(C(F)(F)F)c2)OCc2ccccc2-c2ccccc2C1=O", "inactive"),
    ("Cc1noc(C)c1S(=O)(=O)Nc1ccc2c(c1)CC(=O)N([C@H](C)CO)C[C@@H](C)[C@H](CN(C)Cc1ccc3c(c1)OCO3)O2", "inactive"),
    ("Cc1noc(C)c1NC(=O)Nc1ccc2c(c1)C(=O)N([C@H](C)CO)C[C@H](C)[C@H](CN(C)Cc1ccc(C(=O)Nc3ccccc3N)cc1)OCCCC[C@@H](C)O2", "inactive"),
    ("C[C@@H]1CN([C@@H](C)CO)C(=O)c2cc(NC(=O)Nc3ccc(F)cc3)ccc2O[C@@H](C)CCCCO[C@H]1CN(C)CC1CC1", "inactive"),
    ("COc1ccc(NC(=O)N(C)C[C@H]2OCCCC[C@H](C)Oc3ccc(NC(=O)C4CCCCC4)cc3C(=O)N([C@H](C)CO)C[C@@H]2C)cc1", "inactive"),
    ("O=C(O)C=CC(=O)O.OCCOCCN1CCN(C2=Nc3ccccc3Sc3ccccc32)CC1", "inactive"),
    ("C[C@@H]1CN([C@H](C)CO)C(=O)c2cc(NC(=O)Nc3ccc(F)cc3)ccc2O[C@@H](C)CCCCO[C@@H]1CN(C)CC1CCCCC1", "active"),
    ("C[C@@H]1CN([C@H](C)CO)C(=O)c2cc(NS(=O)(=O)c3ccc(F)cc3)ccc2O[C@H]1CN(C)C(=O)Nc1ccc(C(F)(F)F)cc1", "inactive"),
]

Reference source: the antibiotic and cytotoxicity screens of Wong et al. (2023)
